Below is a list of entries, each paired with its recorded Foxtail, Giant plant response rating (0 to 100 scale) value.
- Test system: foxtail, giant (giant foxtail, Setaria faberii)
- MEASUREMENT_PROTOCOL: Test A postemergence application, visual injury rating
- Type: in vivo
- REPORTED_CONDITIONS: 125 g ai/ha, approx. 10 d, 0 = no effect, 100 = complete control
// no unit string in output, number only

With foxtail, giant (giant foxtail, Setaria faberii) as the test system, Cc1ccc(C2Cn3cnnc3C2C(=O)Nc2cccc(F)c2C)cc1C (stereo not shown) [Compound 26] showed Foxtail, Giant plant response rating (0 to 100 scale) of 50

Hey, foxtail, giant (giant foxtail, Setaria faberii) data for CCc1ccc(C2Cn3c(C)nnc3C2C(=O)Nc2ccccc2SC)cc1 (stereo not shown) [Compound 15] : Foxtail, Giant plant response rating (0 to 100 scale) came out at 0

Simply: CSc1ccccc1NC(=O)C1c2nncn2CC1c1ccc(C)c(C)c1 (stereo not shown) [Compound 18] , foxtail, giant (giant foxtail, Setaria faberii), Foxtail, Giant plant response rating (0 to 100 scale) = 0

---
Foxtail, Giant plant response rating (0 to 100 scale) for foxtail, giant (giant foxtail, Setaria faberii) with input Cc1ccc(C2Cn3c(C)nnc3C2C(=O)Nc2ccccc2F)cc1 (stereo not shown) [Compound 27] equals 30

The observed Foxtail, Giant plant response rating (0 to 100 scale) for CCc1ccc(C2Cn3cnnc3C2C(=O)Nc2ccccc2SC)cc1 (stereo not shown) [Compound 25] when tested with foxtail, giant (giant foxtail, Setaria faberii) stands at 0

Simply: CCc1ccc(C2Cn3cnnc3C2C(=O)Nc2cccc(F)c2F)cc1 (stereo not shown) [Compound 11] , foxtail, giant (giant foxtail, Setaria faberii), Foxtail, Giant plant response rating (0 to 100 scale) = 40
